- Tested on: NCI-H23 lung
- assay overview: NCI tumour cell line growth inhibition, 48 h
parameter measured: GI50

- compound: "COC(=O)c1c2c(c(C)[n+]([O-])c1C)C(=O)C=C(NCc1ccc(Br)cc1)C2=O"
  endpoint value: "0.721 µM"
- compound: "Oc1[nH]c2ccc(Cl)cc2c1/C=c1/ccc2c(c1)N=C(c1ccc(C(F)(F)F)cc1)N=2"
  endpoint value: "3.08 µM"
- compound: "Cc1ccc(NC(C(=O)c2ccccc2)c2ccccc2)cc1 (stereo not drawn)"
  endpoint value: "3.5 µM"

----------
# GI50 per entry
- Test system: MALME-3M melanoma
- assay overview: NCI tumour cell line growth inhibition, 48 h
parameter measured: GI50

- compound: "O=[N+]([O-])c1ccc(N/N=C/c2ccccc2O)nc1"
  parameter measured: "GI50"
  endpoint value: "5800 nM"
- compound: "[CH3][Sn]([CH3])([CH3])[O]C(=O)C(O)c1ccccc1 (stereo unspecified)"
  parameter measured: "GI50"
  endpoint value: "5600 nM"
- compound: "CC(N)CN.CC(N)CN.[Cl-].[O]=[Os+2]=[O] (stereo unspecified)"
  parameter measured: "GI50"
  endpoint value: "> 100000 nM"
- compound: "O=C(N/N=C/c1ccncc1)c1ccc(C(F)(F)F)nc1Nc1cccc(C(F)(F)F)c1"
  parameter measured: "GI50"
  endpoint value: "2000 nM"
- compound: "C[C@@H](Oc1cc(-c2cnn(C3CC4(CNC4)C3)c2)cnc1N)c1c(Cl)ccc(F)c1Cl"
  parameter measured: "GI50"
  endpoint value: "1530 nM"
- compound: "COc1cc(-c2nccc3[nH]c(-c4cccc5[nH]ccc45)nc23)cc(OC)c1OC"
  parameter measured: "GI50"
  endpoint value: "2710 nM"

----------
# TGI per entry
- System: KM12 colon
- assay overview: NCI tumour cell line growth inhibition, 48 h
parameter measured: TGI

- compound: "O=NNc1ccc(Sc2ccc3ccccc3c2)cn1"
  parameter measured: "TGI"
  endpoint value: "> 100 µM"
- compound: "COC(=N)c1ncn(Cc2ccccc2)c1N"
  parameter measured: "TGI"
  endpoint value: "> 100 µM"
- compound: "C=CCC1(O)C(=O)OC2C(O)COC21O (stereo not drawn)"
  parameter measured: "TGI"
  endpoint value: "> 100 µM"

----------
# TGI per entry
- Test system: MCF7 breast
- assay overview: NCI tumour cell line growth inhibition, 48 h

- molecule: "CNC(=O)C1CCC(=O)N1CN(C(C)=O)c1ccccc1 (stereo not drawn)"
  TGI: "> 100 µM"
- molecule: "Cc1ccc(S(=O)(=O)Nn2c(C)cc3ccc(S(=O)(=O)Nc4ccccc4[N+](=O)[O-])cc3c2=O)cc1"
  TGI: "> 100 µM"
- molecule: "Nc1cccc2c1CN(C1CCC(=O)NC1=O)C2=O (stereo not drawn)"
  TGI: "> 100 µM"

----------
- System: COLO 205 colon
- assay overview: NCI tumour cell line growth inhibition, 48 h
parameter measured: TGI

- molecule: "COc1ccc(-c2nnc(Nc3nc(O)c(C4=c5cc(OC(F)(F)F)ccc5=NC4=O)s3)o2)cc1"
  assayed target: "COLO 205 colon"
  endpoint value: "> 100 µM"
- molecule: "COC(=O)[C@H]1CC(=O)C=C2CCCC21 (some centres not stated)"
  assayed target: "COLO 205 colon"
  endpoint value: "> 100 µM"
- molecule: "O=C(Nc1ccccc1)c1cc2c(cc1Cl)SC(NNCCO)=NS2(=O)=O"
  assayed target: "COLO 205 colon"
  endpoint value: "> 100 µM"
- molecule: "CCNC(=S)Nc1c(C#N)c2n(c1C(=O)OCC)CCCCC2"
  assayed target: "COLO 205 colon"
  endpoint value: "> 100 µM"
- molecule: "COC(=O)NN/C=C(\\C=Nc1ccccc1)[N+](=O)[O-]"
  assayed target: "COLO 205 colon"
  endpoint value: "> 100 µM"
- molecule: "c1cc2ccc3cc2cc1CNCCOCCNCc1ccc2ccc(cc2c1)CNCCOCCNC3"
  assayed target: "COLO 205 colon"
  endpoint value: "> 100 µM"
- molecule: "CC1=C(C(=O)Nc2cccc(C(F)(F)F)c2)C(c2ccccc2F)C(C(=O)Nc2cccc(C(F)(F)F)c2)=C(C)N1"
  assayed target: "COLO 205 colon"
  endpoint value: "20.5 µM"
- molecule: "O=S1CCN(Cc2ccc(-c3ccc4ncnc(Nc5ccc(OCc6ccccc6)c(F)c5)c4c3)o2)CC1"
  assayed target: "COLO 205 colon"
  endpoint value: "10.6 µM"
- molecule: "Cc1ccccc1C(=O)NC(O)(C(F)(F)F)C(F)(F)F"
  assayed target: "COLO 205 colon"
  endpoint value: "> 100 µM"
- molecule: "O=[N+]([O-])c1ccc(N/N=C/c2ccccc2O)nc1"
  assayed target: "COLO 205 colon"
  endpoint value: "> 100 µM"
- molecule: "O=C1c2cccc3cccc(c23)C(=O)N1CC#Cc1ccc2c3c(cccc13)C(=O)N(CCN1CCNCC1)C2=O"
  assayed target: "COLO 205 colon"
  endpoint value: "12.4 µM"
- molecule: "CC(C)(C)OC(=O)N(CCCCNC(=O)c1ccccc1)CCCNC(=O)c1ccccc1"
  assayed target: "COLO 205 colon"
  endpoint value: "> 100 µM"

Where do the numbers come from? From PubChem BioAssay (NCI).
